In this section we review reported MIC values for a set of compounds.
Tested on: CNS GC 4537
Experiment: Broth dilution MIC
Assay type: cell-based
Details: CNS GC 4537; Mueller-Hinton broth, 18 hours at 35° C.; read-out: Antimicrobial Activity (MIC)

CO[C@H]1C(O[C@H](C(NCCCNC(=O)C(NC(=O)C(NC(=O)NC(C(=O)O)C(C)C)C2CCNC(=N)N2)C(O)C(C)C)C(=O)O)[C@H]2O[C@@H](n3ccc(=O)[nH]c3=O)[C@H](O)[C@@H]2O)O[C@H](CNCc2ccccc2)[C@@H]1O (stereo partly drawn) [Example 20A] ... > 32 µg/mL

Query: Could you share what MIC was measured for CCCCCCCCNC(=O)NC[C@H]1OC(O[C@H](C2C(=O)N(CCCCCCCC)C(=O)N2CCCNC(=O)C(NC(=O)C(NC(=O)NC(C(=O)O)C(C)C)C2CCNC(=N)N2)C(O)C(C)C)[C@H]2O[C@@H](n3ccc(=O)[nH]c3=O)[C@H](O)[C@@H]2O)[C@H](OC)[C@H]1O (stereo partly drawn) , tested on CNS GC 4537?
Response: > 32 µg/mL

Query: Could you share what MIC was measured for CCCCCCCCCCCCCCCCNC(=O)NC[C@H]1OC(O[C@H](C(NCCCNC(=O)C(NC(=O)C(NC(=O)NC(C(=O)O)C(C)C)C2CCNC(=N)N2)C(O)C(C)C)C(=O)O)[C@H]2O[C@@H](n3ccc(=O)[nH]c3=O)[C@H](O)[C@@H]2O)[C@H](OC)[C@H]1O (stereo partly drawn) , tested on CNS GC 4537?
Response: > 32 µg/mL

Query: Could you share what MIC was measured for CCCCCN(CCCNC(=O)C(NC(=O)C(NC(=O)NC(C(=O)O)C(C)C)C1CCNC(=N)N1)C(O)C(C)C)C(C(=O)O)[C@@H](OC1O[C@H](CN)[C@H](O)[C@H]1OC)[C@H]1O[C@@H](n2ccc(=O)[nH]c2=O)[C@H](O)[C@@H]1O (stereo partly drawn) , tested on CNS GC 4537?
Response: > 32 µg/mL

Query: Could you share what MIC was measured for CO[C@H]1C(O[C@H](C(NCCCNC(=O)C(NC(=O)C(NC(=O)NC(C(=O)O)C(C)C)C2CCNC(=N)N2)C(O)C(C)C)C(=O)O)[C@H]2O[C@@H](n3ccc(=O)[nH]c3=O)[C@H](O)[C@@H]2O)O[C@H](CNCc2ccc(-c3ccccc3)cc2)[C@@H]1O (stereo partly drawn) [Example 19A] , tested on CNS GC 4537?
Response: > 32 µg/mL

Query: Could you share what MIC was measured for CO[C@H]1C(O[C@H](C(C(=O)O)N(CCCNC(=O)C(NC(=O)C(NC(=O)NC(C(=O)O)C(C)C)C2CCNC(=N)N2)C(O)C(C)C)Cc2ccccc2)[C@H]2O[C@@H](n3ccc(=O)[nH]c3=O)[C@H](O)[C@@H]2O)O[C@H](CN)[C@@H]1O (stereo partly drawn) , tested on CNS GC 4537?
Response: > 32 µg/mL

Query: Could you share what MIC was measured for CCCCCCCCCCCCN(CCCNC(=O)C(NC(=O)C(NC(=O)NC(C(=O)O)C(C)C)C1CCNC(=N)N1)C(O)C(C)C)C(C(=O)O)[C@@H](OC1O[C@H](CN)[C@H](O)[C@H]1OC)[C@H]1O[C@@H](n2ccc(=O)[nH]c2=O)[C@H](O)[C@@H]1O (stereo partly drawn) , tested on CNS GC 4537?
Response: > 32 µg/mL

Query: Could you share what MIC was measured for COc1ccc(N2C(=O)C([C@@H](OC3O[C@H](CN)[C@H](O)[C@H]3OC)[C@H]3O[C@@H](n4ccc(=O)[nH]c4=O)[C@H](O)[C@@H]3O)N(CCCNC(=O)C(NC(=O)C(NC(=O)NC(C(=O)O)C(C)C)C3CCNC(=N)N3)C(O)C(C)C)C2=O)cc1 (stereo partly drawn) , tested on CNS GC 4537?
Response: > 32 µg/mL

Query: Could you share what MIC was measured for CCCCCCCCCCCCNC(=O)NC[C@H]1OC(O[C@H](C2C(=O)N(CCCCCCCCCCCC)C(=O)N2CCCNC(=O)C(NC(=O)C(NC(=O)NC(C(=O)O)C(C)C)C2CCNC(=N)N2)C(O)C(C)C)[C@H]2O[C@@H](n3ccc(=O)[nH]c3=O)[C@H](O)[C@@H]2O)[C@H](OC)[C@H]1O (stereo partly drawn) , tested on CNS GC 4537?
Response: > 32 µg/mL

Query: Could you share what MIC was measured for CCCCCCN1C(=O)C([C@@H](OC2O[C@H](CN)[C@H](O)[C@H]2OC)[C@H]2O[C@@H](n3ccc(=O)[nH]c3=O)[C@H](O)[C@@H]2O)N(CCCNC(=O)C(NC(=O)C(NC(=O)NC(C(=O)O)C(C)C)C2CCNC(=N)N2)C(O)C(C)C)C1=O (stereo partly drawn) , tested on CNS GC 4537?
Response: > 32 µg/mL

Query: Could you share what MIC was measured for CO[C@H]1C(O[C@H](C(C(=O)O)N(CCCCCCCCCCCC[N+]2(C)CCOCC2)CCCNC(=O)C(NC(=O)C(NC(=O)NC(C(=O)O)C(C)C)C2CCNC(=N)N2)C(O)C(C)C)[C@H]2O[C@@H](n3ccc(=O)[nH]c3=O)[C@H](O)[C@@H]2O)O[C@H](CN)[C@@H]1O (stereo partly drawn) , tested on CNS GC 4537?
Response: > 32 µg/mL

Query: Could you share what MIC was measured for CCCCCNC[C@H]1OC(O[C@H](C(NCCCNC(=O)C(NC(=O)C(NC(=O)NC(C(=O)O)C(C)C)C2CCNC(=N)N2)C(O)C(C)C)C(=O)O)[C@H]2O[C@@H](n3ccc(=O)[nH]c3=O)[C@H](O)[C@@H]2O)[C@H](OC)[C@H]1O (stereo partly drawn) , tested on CNS GC 4537?
Response: > 32 µg/mL

Query: Could you share what MIC was measured for COC1C(O[C@H](C2C(=O)N(c3ccc(F)cc3)C(=O)N2CCCNC(=O)C(NC(=O)C(NC(=O)NC(C(=O)O)C(C)C)C2CCNC(=N)N2)C(O)C(C)C)[C@H]2O[C@@H](n3ccc(=O)[nH]c3=O)C(O)C2O)O[C@H](CNC(=O)Nc2ccc(F)cc2)C1O (stereo partly drawn) , tested on CNS GC 4537?
Response: > 32 µg/mL

Query: Could you share what MIC was measured for CCCCCCNC(=O)NC[C@H]1OC(O[C@H](C2C(=O)N(CCCCCC)C(=O)N2CCCNC(=O)C(NC(=O)C(NC(=O)NC(C(=O)O)C(C)C)C2CCNC(=N)N2)C(O)C(C)C)[C@H]2O[C@@H](n3ccc(=O)[nH]c3=O)[C@H](O)[C@@H]2O)[C@H](OC)[C@H]1O (stereo partly drawn) , tested on CNS GC 4537?
Response: 32 µg/mL

Query: Could you share what MIC was measured for CCCCCCCCCCCCN1C(=O)C([C@@H](OC2O[C@H](CN)[C@H](O)[C@H]2OC)[C@H]2O[C@@H](n3ccc(=O)[nH]c3=O)[C@H](O)[C@@H]2O)N(CCCNC(=O)C(NC(=O)C(NC(=O)NC(C(=O)O)C(C)C)C2CCNC(=N)N2)C(O)C(C)C)C1=O (stereo partly drawn) , tested on CNS GC 4537?
Response: > 32 µg/mL
